Molecular target: Tyrosine-protein kinase Mer (Homo sapiens) (UniProt Q12866)
Sequence (whole entry): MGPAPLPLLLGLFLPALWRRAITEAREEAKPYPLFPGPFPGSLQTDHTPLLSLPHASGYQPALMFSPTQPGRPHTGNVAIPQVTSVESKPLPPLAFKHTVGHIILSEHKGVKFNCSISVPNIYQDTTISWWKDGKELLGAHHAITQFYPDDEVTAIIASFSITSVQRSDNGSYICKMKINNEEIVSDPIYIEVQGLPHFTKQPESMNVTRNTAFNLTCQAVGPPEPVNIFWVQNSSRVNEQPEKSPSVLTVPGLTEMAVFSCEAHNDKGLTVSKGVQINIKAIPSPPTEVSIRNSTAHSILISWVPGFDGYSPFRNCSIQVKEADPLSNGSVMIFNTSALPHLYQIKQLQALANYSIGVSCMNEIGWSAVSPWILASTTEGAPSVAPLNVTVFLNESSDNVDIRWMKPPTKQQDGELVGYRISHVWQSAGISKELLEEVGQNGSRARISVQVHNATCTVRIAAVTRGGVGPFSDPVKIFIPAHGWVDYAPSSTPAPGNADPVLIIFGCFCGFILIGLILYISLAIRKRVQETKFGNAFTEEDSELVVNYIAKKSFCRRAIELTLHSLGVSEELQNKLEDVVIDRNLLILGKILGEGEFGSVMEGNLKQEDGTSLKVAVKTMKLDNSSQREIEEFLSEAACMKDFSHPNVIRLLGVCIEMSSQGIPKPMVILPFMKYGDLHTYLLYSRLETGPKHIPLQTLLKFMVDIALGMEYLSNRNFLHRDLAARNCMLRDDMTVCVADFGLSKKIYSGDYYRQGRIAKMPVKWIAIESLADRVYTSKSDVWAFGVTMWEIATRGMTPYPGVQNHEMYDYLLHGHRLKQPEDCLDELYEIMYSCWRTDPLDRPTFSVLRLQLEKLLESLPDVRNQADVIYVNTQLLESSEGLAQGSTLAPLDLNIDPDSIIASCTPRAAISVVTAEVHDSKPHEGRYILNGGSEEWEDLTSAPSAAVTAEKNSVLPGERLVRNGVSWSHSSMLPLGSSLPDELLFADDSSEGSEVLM
Test: Inhibition of recombinant GST-tagged human Mer (578 to 872 residues) cytoplasmic domain expressed in Baculovirus system using poly (Glu-Ala-Tyr) peptide as substrate after 1.5 hrs by ELISA
Activity calls are given as the source filed them. The calls are words filed in the database; no cut-off is given here.
# valid calls are 1 = active, 0 = inactive; nothing else

Request: Outcome? CC(C)c1nc2c(Oc3ccc(NC(=O)c4cccn(-c5ccc(F)cc5)c4=O)cc3F)ccnc2[nH]1
Result: 1

Request: Outcome? CC(C)c1nc2c(Oc3ccc(NC(=O)c4cccn(-c5ccc(F)cc5)c4=O)cc3F)c(-c3ccncc3)cnc2[nH]1
Result: 0

Request: Outcome? CCc1nc2c(Oc3ccc(NC(=O)c4cccn(-c5ccc(F)cc5)c4=O)cc3F)c(-c3ccc(O)cc3)cnc2[nH]1
Result: 0

Request: Outcome? CC(C)c1nc2c(Oc3ccc(NC(=O)c4cccn(-c5ccc(F)cc5)c4=O)cc3F)c(-c3cccnc3)cnc2[nH]1
Result: 0

Request: Outcome? CCc1nc2c(Oc3ccc(NC(=O)c4cccn(-c5ccc(F)cc5)c4=O)cc3F)c(-c3cccnc3)cnc2[nH]1
Result: 0

Request: Outcome? O=C(Nc1ccc(Oc2ccnc3[nH]cnc23)c(F)c1)c1cccn(-c2ccc(F)cc2)c1=O
Result: 1

Request: Outcome? CCc1nc2c(Oc3ccc(NC(=O)c4cccn(-c5ccc(F)cc5)c4=O)cc3F)c(-c3ccoc3)cnc2[nH]1
Result: 0

Request: Outcome? CC(C)c1nc2c(Oc3ccc(NC(=O)c4cccn(-c5ccc(F)cc5)c4=O)cc3F)c(-c3ccc(O)cc3)cnc2[nH]1
Result: 0

Request: Outcome? O=C(Nc1ccc(Oc2c(-c3ccccc3)cnc3[nH]cnc23)c(F)c1)c1cccn(-c2ccc(F)cc2)c1=O
Result: 0

Request: Outcome? O=C(Nc1ccc(Oc2c(Br)cnc3[nH]cnc23)c(F)c1)c1cccn(-c2ccc(F)cc2)c1=O
Result: 0

Request: Outcome? CC(C)c1nc2c(Oc3ccc(NC(=O)c4cccn(-c5ccc(F)cc5)c4=O)cc3F)c(-c3ccoc3)cnc2[nH]1
Result: 0

Request: Outcome? CC(C)c1nc2c(Oc3ccc(NC(=O)c4cccn(-c5ccc(F)cc5)c4=O)cc3F)c(-c3ccc(N(C)C)cc3)cnc2[nH]1
Result: 0

Request: Outcome? Cc1cnc2[nH]cnc2c1Oc1ccc(NC(=O)c2cccn(-c3ccc(F)cc3)c2=O)cc1F
Result: 0

Request: Outcome? CCc1nc2c(Oc3ccc(NC(=O)c4cccn(-c5ccc(F)cc5)c4=O)cc3F)c(-c3ccc(N(C)C)cc3)cnc2[nH]1
Result: 0

Request: Outcome? CCc1nc2c(Oc3ccc(NC(=O)c4cccn(-c5ccc(F)cc5)c4=O)cc3F)c(-c3ccncc3)cnc2[nH]1
Result: 0
